# study-target: rat P2X7 (Rattus norvegicus (Rat), UniProt Q64663)
# Sequence (Q64663 whole entry): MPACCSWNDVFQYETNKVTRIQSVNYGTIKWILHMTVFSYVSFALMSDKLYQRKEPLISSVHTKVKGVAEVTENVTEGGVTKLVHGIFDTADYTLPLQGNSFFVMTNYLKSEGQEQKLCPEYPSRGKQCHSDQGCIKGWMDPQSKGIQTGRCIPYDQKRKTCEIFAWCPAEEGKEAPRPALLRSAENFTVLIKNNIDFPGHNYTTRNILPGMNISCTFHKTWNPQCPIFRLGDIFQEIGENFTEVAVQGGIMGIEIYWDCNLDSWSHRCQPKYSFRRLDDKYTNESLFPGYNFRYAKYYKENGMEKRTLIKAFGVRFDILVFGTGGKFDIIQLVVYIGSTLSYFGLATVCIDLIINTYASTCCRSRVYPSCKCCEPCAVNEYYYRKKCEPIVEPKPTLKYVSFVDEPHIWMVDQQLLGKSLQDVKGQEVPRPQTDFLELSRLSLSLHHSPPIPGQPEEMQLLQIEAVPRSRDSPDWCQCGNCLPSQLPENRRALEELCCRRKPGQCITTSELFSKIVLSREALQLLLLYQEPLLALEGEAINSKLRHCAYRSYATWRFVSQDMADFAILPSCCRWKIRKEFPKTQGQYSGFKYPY
# experiment-notes: Ca2+ flux (FLIPR) in 1321N1 cells expressing recombinant rat P2X7 channel
# measurement-parameters: 250 μM BzATP, Calcium-4 dye

# compound, IC50 [nM]
measured = [
    ("Cc1nc2c(c(-c3ccn[nH]3)n1)C[C@@H](C)N(C(=O)c1cccc(Cl)c1Cl)C2 (single isomer, unassigned)", 8.8),
    ("O=C(c1cccc(C(F)(F)F)c1Cl)N1CCc2c(nc(C3CC3)nc2-c2ccn[nH]2)C1", 161),
    ("O=C(c1cccc(C(F)(F)F)c1Cl)N1CCc2c(ncnc2-c2ccn[nH]2)C1", 76.2),
    ("C[C@@H]1c2ncnc(-c3ccn[nH]3)c2CCN1C(=O)c1ccc(F)c(Cl)c1Cl (single isomer, unassigned)", 28.4),
    ("Cc1nc2c(c(-c3ccn(CCF)n3)n1)C[C@@H](C)N(C(=O)c1cccc(C(F)(F)F)c1Cl)C2 (single isomer, unassigned)", 12.9),
    ("CC1c2ncnc(-c3ccn[nH]3)c2CCN1C(=O)c1cccc(C(F)(F)F)c1Cl (stereo not shown)", 16),
    ("O=C(c1cccc(C(F)(F)F)c1Cl)N1CCc2c(ncnc2-c2ccccn2)C1", 5970),
]

Provenance of the data: patent US9096596B2
